The reader will find reported MIC values listed item by item below.
tested on: hyper-permeable E. coli 901C
MEASURED QUANTITY: MIC

MOLECULE: NCCn1nnc(C(=NO)C(=O)N[C@H]2Cc3cccc(C(=O)O)c3OB2O)n1 [Example 111]
REPORTED MEASUREMENT: > 128 µg/mL
//
MOLECULE: Nc1nc(/C(=N/OCC(=O)O)C(=O)N[C@H]2Cc3cccc(C(=O)O)c3OB2O)cs1 [Example 18]
REPORTED MEASUREMENT: < 64 µg/mL
//
MOLECULE: CNC(=O)CO/N=C(\C(=O)N[C@H]1Cc2cccc(C(=O)O)c2OB1O)c1csc(N)n1 [Example 57]
REPORTED MEASUREMENT: < 64 µg/mL
//
MOLECULE: NCCO/N=C(\C(=O)N[C@H]1Cc2cccc(C(=O)O)c2OB1O)c1csc(N)n1 [Example 105]
REPORTED MEASUREMENT: < 64 µg/mL
//
MOLECULE: O=C(N[C@H]1Cc2cccc(C(=O)O)c2OB1O)/C(=N\O)c1cscn1 [Example 90]
REPORTED MEASUREMENT: 64 to 128 µg/mL
//
MOLECULE: CC(C)(O/N=C(\C(=O)N[C@H]1Cc2cc(O)cc(C(=O)O)c2OB1O)c1csc(N)n1)C(=O)O [Example 80]
REPORTED MEASUREMENT: < 64 µg/mL
//
MOLECULE: N#CC1CCC(NC(=O)CO/N=C(\C(=O)N[C@H]2Cc3cccc(C(=O)O)c3OB2O)c2csc(N)n2)CC1 (some centres unmarked) [Example 62]
REPORTED MEASUREMENT: < 64 µg/mL
//
MOLECULE: Nc1cccc(/C(=N/O)C(=O)N[C@H]2Cc3cccc(C(=O)O)c3OB2O)n1 [Example 16]
REPORTED MEASUREMENT: 64 to 128 µg/mL
//
MOLECULE: CC(C)NC(=N)c1ccc(OCCO/N=C(\C(=O)N[C@H]2Cc3cccc(C(=O)O)c3OB2O)c2csc(N)n2)cc1 [Example 49]
REPORTED MEASUREMENT: < 64 µg/mL
//
MOLECULE: Nc1nc(/C(=N/O)C(=O)N[C@H]2Cc3ccc(CN4CCCC4)c(C(=O)O)c3OB2O)cs1 [Example 25]
REPORTED MEASUREMENT: > 128 µg/mL
//
MOLECULE: O=C(O)CO/N=C(/Cn1cncn1)C(=O)N[C@H]1Cc2cccc(C(=O)O)c2OB1O [Example 112]
REPORTED MEASUREMENT: > 128 µg/mL

* * *

tested on: hyper-permeable E. coli 901C

COMPOUND: COc1ccc(CSc2nc(/C(=N/O)C(=O)N[C@H]3Cc4cccc(C(=O)O)c4OB3O)cs2)cc1 [Example 92]
MIC: > 128 µg/mL
//
COMPOUND: O=C(N[C@H]1Cc2cccc(C(=O)O)c2OB1O)/C(=N\O)c1csc(NCCF)n1 [Example 101]
MIC: 64 to 128 µg/mL
//
COMPOUND: CS(=O)(=O)NCCO/N=C(\C(=O)N[C@H]1Cc2cccc(C(=O)O)c2OB1O)c1csc(N)n1 [Example 120]
MIC: 64 to 128 µg/mL
//
COMPOUND: O=C(N[C@H]1Cc2cccc(C(=O)O)c2OB1O)/C(=N\O)c1ccccc1 [Example 83]
MIC: > 128 µg/mL
//
COMPOUND: N#Cc1ccc(OCCO/N=C(\C(=O)N[C@H]2Cc3cccc(C(=O)O)c3OB2O)c2csc(N)n2)cc1 [Example 46]
MIC: < 64 µg/mL
//
COMPOUND: Nc1nc(C(CC(=O)O)C(=O)N[C@H]2Cc3cccc(C(=O)O)c3OB2O)cs1 (mixture of isomers) [Example 99]
MIC: 64 to 128 µg/mL
//
COMPOUND: Nc1nc(/C(=N/OC2CCNCC2)C(=O)N[C@H]2Cc3cccc(C(=O)O)c3OB2O)cs1 [Example 51]
MIC: 64 to 128 µg/mL
//
COMPOUND: Nc1nc(/C(=N/OCC(F)F)C(=O)N[C@H]2Cc3cccc(C(=O)O)c3OB2O)cs1 [Example 114]
MIC: < 64 µg/mL
//
COMPOUND: Nc1nc(/C(=N/OCCCCl)C(=O)N[C@H]2Cc3cccc(C(=O)O)c3OB2O)cs1 [Example 115]
MIC: < 64 µg/mL
//
COMPOUND: Nc1nc(C(=NO)C(=O)NC2Cc3cccc(C(=O)O)c3OB2O)ns1 (stereo in doubt) [Example 20]
MIC: > 128 µg/mL
//
COMPOUND: NCCN(CCN)c1nc(/C(=N/O)C(=O)N[C@H]2Cc3cccc(C(=O)O)c3OB2O)cs1 [Example 94]
MIC: > 128 µg/mL
//
COMPOUND: CC(C)(O/N=C(\C(=O)N[C@H]1Cc2cccc(C(=O)O)c2OB1O)c1csc(N)n1)C(N)=O [Example 72]
MIC: < 64 µg/mL
//
COMPOUND: CC(C)(O/N=C(\C(=O)N[C@H]1Cc2cccc(C(=O)O)c2OB1O)c1csc(N)n1)C(=O)N[C@@H](CCC(=O)O)C(=O)O [Example 77]
MIC: < 64 µg/mL
//
COMPOUND: CC(C)(O/N=C(\C(=O)N[C@H]1Cc2cccc(C(=O)O)c2OB1O)c1csc(N)n1)C(=O)O [Example 68]
MIC: < 64 µg/mL
//
COMPOUND: O=C(N[C@H]1Cc2cccc(C(=O)O)c2OB1O)/C(=N\O)c1csc(NCCc2ccncc2)n1 [Example 123]
MIC: > 128 µg/mL
//
COMPOUND: Nc1nc(/C(=N/OC2CNC2)C(=O)N[C@H]2Cc3cccc(C(=O)O)c3OB2O)cs1 [Example 53]
MIC: 64 to 128 µg/mL
//
COMPOUND: Nc1nc(/C(=N/O)C(=O)N[C@H]2Cc3ccc(CCC(=O)O)c(C(=O)O)c3OB2O)cs1 [Example 28]
MIC: > 128 µg/mL
//
COMPOUND: Nc1nc(/C(=N\O)C(=O)N[C@H]2Cc3cccc(C(=O)O)c3OB2O)cs1 [Example 7]
MIC: < 64 µg/mL
//
COMPOUND: Nc1nc(/C(=N/OCC2CCNCC2)C(=O)N[C@H]2Cc3cccc(C(=O)O)c3OB2O)cs1 [Example 52]
MIC: < 64 µg/mL
//
COMPOUND: Nc1nc(/C(=N/O)C(=O)N[C@H]2Cc3cc(OC(F)(F)F)cc(C(=O)O)c3OB2O)cs1 [Example 45]
MIC: < 64 µg/mL
//
COMPOUND: Nc1nc(C(=CCCO)C(=O)N[C@H]2Cc3cccc(C(=O)O)c3OB2O)cs1 [Example 85]
MIC: 64 to 128 µg/mL
//
COMPOUND: Nc1nc(/C(=N/OCCCBr)C(=O)N[C@H]2Cc3cccc(C(=O)O)c3OB2O)cs1 [Example 116]
MIC: > 128 µg/mL
//
COMPOUND: N#Cc1ccc(NC(=O)CO/N=C(\C(=O)N[C@H]2Cc3cccc(C(=O)O)c3OB2O)c2csc(N)n2)cc1 [Example 56]
MIC: < 64 µg/mL
